- Tested on: Nucleic Acid
- Protocol text: Antitumor potency on human breast MCF-7 cell lines.
- Format: functional, cell-based
- Recorded conditions: MCF7
pIC50: −log10 of the molar value.
Classification by pIC50 | ranges: bin 1: < 8; bin 2: ≥ 8 and < 9; bin 3: ≥ 9

stdin: Tag the class for CO[C@@]12C(COC(N)=O)C3=C(C(=O)C(C)=C(OCCSSCCO)C3=O)N1CC1NC12 (some centres undefined)
stdout: bin 2

stdin: Likewise for CO[C@@]12C(COC(N)=O)C3=C(C(=O)C(C)=C(OCCO)C3=O)N1CC1NC12 (some centres undefined) ?
stdout: bin 2

stdin: Also, CO[C@@]12C(COC(N)=O)c3c(O)c(/N=C4/C=CN=N4)c(C)c(O)c3N1CC1NC12 (some centres undefined) please.
stdout: bin 1

stdin: And then CO[C@@]12C(COC(N)=O)C3=C(C(=O)C(C)=C(Nc4nc(C)cs4)C3=O)N1CC1NC12 (some centres undefined) , what is it?
stdout: bin 2

stdin: Continue with CO[C@@]12[C@H](COC(N)=O)C3=C(C(=O)C(C)=C(N)C3=O)N1C[C@@H]1N[C@@H]12 [MITOMYCIN]
stdout: bin 1

stdin: CO[C@@]12C(COC(N)=O)C3=C(C(=O)C(C)=C(OCCOCCO)C3=O)N1CC1NC12 (some centres undefined) ?
stdout: bin 1

stdin: Also, CO[C@@]12C(COC(N)=O)C3=C(C(=O)C(C)=C(NCCc4ccco4)C3=O)N1CC1NC12 (some centres undefined) please.
stdout: bin 1

stdin: Can you handle CO[C@@]12C(COC(N)=O)c3c(O)c(/N=C4\C=CC(=O)C([N+](=O)[O-])=C4)c(C)c(O)c3N1CC1NC12 (some centres undefined) next?
stdout: bin 1

stdin: Here is the next molecule: CO[C@@]12C(COC(N)=O)C3=C(C(=O)C(C)=C(NCCCO)C3=O)N1CC1NC12 (some centres undefined)
stdout: bin 1

stdin: Try the molecule CO[C@@]12C(COC(N)=O)C3=C(C(=O)C(C)=C(OCC4CCC4)C3=O)N1CC1NC12 (some centres undefined)
stdout: bin 3

stdin: Do the same for CO[C@@]12C(COC(N)=O)C3=C(C(=O)C(C)=C(NCCc4ccccn4)C3=O)N1CC1NC12 (some centres undefined) please
stdout: bin 1

stdin: # iterate: CO[C@@]12C(COC(N)=O)C3=C(C(=O)C(C)=C(OCC4CC4)C3=O)N1CC1NC12 (some centres undefined)
stdout: bin 3
